Data provenance is PubChem BioAssay (NCI).

Items are presented alongside their recorded growth inhibition.
- Method: NCI Yeast Anticancer Drug Screen. Data for the mec2-1 strain (AID 157)
- Particulars: S. cerevisiae mec2-1 strain, at 3.7 µM, active compounds read high
About 79,000 compounds went through this panel and 15% of them were active in at least one assay; those are over-represented in the sample as a whole.
State the answer as a number, implicitly in %.

Worked set:
{"columns": ["Compound", "Unit of measure", "growth inhibition"],
 "data": [
  ["Oc1ccc(C=Nc2ccccc2O)cc1", "%", 29],
  ["COC(=O)c1ccc2c(c1)Cc1ccccc1-2", "%", 1]
]}

INPUT: Can you look up the measured growth inhibition of CC(=O)[C@]1(O)Cc2c(O)c3c(c(O)c2[C@@H](OC2CC(N)C(O)C(C)O2)C1)C(=O)c1c(OCc2ccccc2)cccc1C3=O (some centres undefined) for me?
OUTPUT: -10

INPUT: Can you look up the measured growth inhibition of `c1ccc2c(c1)ccc1c3ccncc3ccc21` for me?
OUTPUT: 4

INPUT: Can you look up the measured growth inhibition of `CCOc1ccc(C(=O)CCC(=O)O)c(C)c1` for me?
OUTPUT: -7

INPUT: Can you look up the measured growth inhibition of `CN(N=O)c1ccc(/C=C/c2ccnc3ccccc23)cc1` for me?
OUTPUT: 5

INPUT: Can you look up the measured growth inhibition of `O=C(/C=C\c1ccc([N+](=O)[O-])o1)Nc1ccc(Cl)cc1` for me?
OUTPUT: 19

====

Items are presented alongside their recorded growth inhibition.
- Method: NCI Yeast Anticancer Drug Screen. Data for the mlh1 strain (AID 171);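 note: 0% = growth of vehicle-treated control cultures of the same strain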
- Particulars: S. cerevisiae mlh1 strain growth inhibition; at 3.7 µM; active compounds read high
The panel holds about 79,000 compounds, 15% with a hit somewhere; the sample as a whole holds those more often.
State the answer as a number, implicitly in %.

Worked set:
{"columns": ["Mol smiles", "Measurement"],
 "data": [
  ["Nc1ccc(S(=O)(=O)Nc2ccc(Nc3c4ccccc4nc4ccccc34)cc2)cc1", 24],
  ["CN=C(N)N/N=C(\\C)c1ccc2oc3ccc(/C(C)=N/NC(N)=NC)cc3c2c1", -24],
  ["Cc1nc2c(ncn2CCO)c(=O)[nH]1", -11],
  ["O=C1CC(=O)N(C2CCCCC2)C(=O)N1c1ccccc1S(=O)(=O)Oc1ccccc1", -19],
  ["Cn1ncc2cc3c(Nc4ccc(Cl)cc4)cccc3nc21", -4]
]}

INPUT: Can you look up the measured growth inhibition of `CCCCCCCCCCCCCCCCNC(=O)/C(=C\c1ccc(Cl)c(Cl)c1)NC(=O)c1ccccc1` for me?
OUTPUT: -1

INPUT: Can you look up the measured growth inhibition of `CCOc1ccc(C(=O)CCC(=O)O)c(C)c1` for me?
OUTPUT: -6

====

Items are presented alongside their recorded growth inhibition.
- Method: NCI Yeast Anticancer Drug Screen. Data for the rad50 strain (AID 155);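 note: 0% = growth of vehicle-only cultures of the same strain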
- Particulars: S. cerevisiae rad50 strain growth inhibition; at 33.0 µM; active compounds read high
About 79,000 compounds went through this panel and 15% of them were active in at least one assay; those are over-represented in the sample as a whole.
State the answer as a number, implicitly in %.

Worked set:
{"columns": ["Compound", "Unit of measure", "Measurement"],
 "data": [
  ["O=C(/C=C/c1cccc2ccccc12)c1ccc(Cl)cc1", "%", 13],
  ["On1cnc(=S)c2[nH]cnc21", "%", -62],
  ["Nc1cc(S(N)(=O)=O)ccc1SSc1ccc(S(N)(=O)=O)cc1N", "%", 33],
  ["CSc1s[s+]c(SC)c1-c1ccccc1", "%", 58],
  ["Clc1c(Cl)c(Cl)c2c(nnn2C2CCCO2)c1Cl (configuration not stated)", "%", 14]
]}

INPUT: Can you look up the measured growth inhibition of Nc1nc(F)nc2c1ncn2C1OC(COP(=O)(O)O)C(O)C1O (configuration not stated) for me?
OUTPUT: 32

INPUT: Can you look up the measured growth inhibition of `N#Cc1sc2c(c1OC(=O)c1ccco1)c(=O)n(-c1ccccc1)c(=S)n2-c1ccccc1` for me?
OUTPUT: 0

INPUT: Can you look up the measured growth inhibition of `COc1cc(NCc2ccc3nc(N)nc(N)c3c2C)cc(OC)c1OC` for me?
OUTPUT: 28

INPUT: Can you look up the measured growth inhibition of `Cc1cc(C(C)(C)CC(C)(C)C)cc(O)c1O` for me?
OUTPUT: 93

INPUT: Can you look up the measured growth inhibition of `COc1cc(/C=C/c2sc3ccccc3[n+]2C)ccc1N(C)C` for me?
OUTPUT: 65

INPUT: Can you look up the measured growth inhibition of `Cc1ccc(I)cc1N=C=S` for me?
OUTPUT: 94

INPUT: Can you look up the measured growth inhibition of OC(CN1CCCCC1)c1cc(Cl)c(Cl)c(Cl)c1 (configuration not stated) for me?
OUTPUT: 20
